B1: CPEB3 Ribozyme (parent)
chain: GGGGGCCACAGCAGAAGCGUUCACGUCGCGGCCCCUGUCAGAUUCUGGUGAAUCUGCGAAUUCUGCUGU

- Variants of: B1
- Assay notes: self-cleavage, relative activity (ratio to wild type); higher = more cleavage; co-transcriptional
// bucketize self-cleavage: lower band: < 0.4; central band: ≥ 0.4 and < 0.7; upper band: ≥ 0.7

Mut: C32A U67A
Label class: upper band

Mut: C45U A51U
Label class: upper band

Mut: G3U G37U
Label class: lower band

Mut: A8C G17U
Label class: central band

Mut: G41C U67G
Label class: upper band

Mut: G5A G56A
Label class: upper band

Mut: G58A A59C
Label class: central band

Mut: G11C G41A
Label class: lower band

Mut: U20G U21G
Label class: lower band

Mut: A40C A51G
Label class: central band

## Task Record U21G G48A — which class?
## Result central band

## Task What do you have for G1U U46G ?
## Result lower band

## Task Moving on to A8G G50C
## Result upper band

## Task Request: A8C G17A
## Result lower band

Data provenance is the RNAGym collection of RNA variant scans (doi:10.7554/elife.80360).
